Give measured % Inhibition for each item. Keep answers brief.
Test system: human SMAD7 mRNA
Assay: Antisense inhibition of human SMAD7 mRNA expression in Hep3B cells by 3-10-3 cEt gapmers, 10,000 nM, electroporation (Example 2)
Type: cell-based
Conditions: Hep3B cells, electroporation with 10,000 nM antisense oligonucleotide, approximately 24 hours, SMAD7 mRNA by RT-PCR (RTS5062), relative to untreated control cells
Description: Antisense oligonucleotides were designed to target human SMAD7 mRNA and were tested for their effects on SMAD7 mRNA expression in vitro. […] After a treatment period of approximately 24 hours, RNA was isolated from the cells and SMAD7 mRNA levels were measured by quantitative real-time PCR. […] SMAD7 mRNA levels were adjusted according to total RNA content, as measured by RIBOGREEN®. […]
Strand notation (5' to 3'): a small letter for the sugar, then the base; units joined by * are phosphorothioate-linked, units joined directly phosphodiester-linked; [ ] holds rarer units or linkages, { } end groups; capitals alone tell only the bases. k = constrained ethyl (cEt); [5mC] = 5-methylcytosine; d = 2'-deoxy (DNA)
Response body: numeric value in %, unit text excluded.

Value of measured % Inhibition for the entry 790458 (k[5mC]*kG*k[5mC]*d[5mC]*dA*dG*dT*d[5mC]*dT*d[5mC]*d[5mC]*d[5mC]*dG*kG*kA*kG; antisense) [compound 790458] : 0

Value of measured % Inhibition for the entry 830137 (antisense kA*kT*kG*dA*dA*dA*dG*dT*dA*d[5mC]*dA*dA*dT*k[5mC]*kT*k[5mC]) [compound 830137] : 68

Value of measured % Inhibition for the entry 798739 (antisense k[5mC]*kG*k[5mC]*d[5mC]*dT*dT*d[5mC]*dA*dG*dA*dT*d[5mC]*d[5mC]*kG*k[5mC]*k[5mC]) [compound 798739] : 37

Value of measured % Inhibition for the entry 798718 (antisense kA*kT*k[5mC]*d[5mC]*dA*dG*d[5mC]*d[5mC]*d[5mC]*dT*dG*d[5mC]*d[5mC]*k[5mC]*kG*kG) [compound 798718] : 37

Value of measured % Inhibition for the entry 800027 (k[5mC]*kG*k[5mC]*dT*dT*dT*dG*d[5mC]*dT*d[5mC]*d[5mC]*d[5mC]*dA*kG*kG*kG; antisense) [compound 800027] : 0

Value of measured % Inhibition for the entry 830179 (antisense kT*kT*kT*dA*d[5mC]*dT*dG*d[5mC]*dA*dT*dT*d[5mC]*d[5mC]*kG*kG*k[5mC]) [compound 830179] : 51

---

Assay: Oligonucleotide concentrations in tissues by LC-MS/MS after oral gavage in CD-1 mice (Example 7)
Type: in vivo
Conditions: 500 mg/kg oral gavage once daily for 4 weeks, 48 hours after last dose, colon
If the reported Oligonucleotide concentration, Colon equals or exceeds 4 µg/g, assign yes (1). If not, assign no (0).

(Q) Assess whether reported Oligonucleotide concentration, Colon for 829994 (GGAGGCAGGGCCGCGA; 3-10-3 cEt gapmer, further chemistry not given here) [compound 829994] sits at 4 µg/g or higher.
(A) yes (1)

(Q) Assess whether reported Oligonucleotide concentration, Colon for 830025 (antisense TTTGTAAATCGAAAGC; 3-10-3 cEt gapmer, further chemistry not given here) [compound 830025] sits at 4 µg/g or higher.
(A) no (0)

(Q) Assess whether reported Oligonucleotide concentration, Colon for 798781 (CGTAAGATTCACAGCA; 3-10-3 cEt gapmer, further chemistry not given here) [compound 798781] sits at 4 µg/g or higher.
(A) yes (1)

(Q) Assess whether reported Oligonucleotide concentration, Colon for 830037 (antisense CTATTGGCTGATCTGG; 3-10-3 cEt gapmer, further chemistry not given here) [compound 830037] sits at 4 µg/g or higher.
(A) yes (1)

(Q) Assess whether reported Oligonucleotide concentration, Colon for 790615 (CCAATGAGAATGCTTC; 3-10-3 cEt gapmer, further chemistry not given here) [compound 790615] sits at 4 µg/g or higher.
(A) no (0)

(Q) Assess whether reported Oligonucleotide concentration, Colon for 830121 (AGAATCAAGCCCTGGC; 3-10-3 cEt gapmer, further chemistry not given here) [compound 830121] sits at 4 µg/g or higher.
(A) no (0)
